Would you mind telling me the reported IC50 of each entry?
# Procedure Details: Inhibition of HIV protease assessed as reduction in enzyme-mediated substrate hydrolysis using Abz-Thr-Ile-Nle-Phe(NO2)-Gln-Arg fluorogenic substrate
# Parameters: species or system Human immunodeficiency virus
Give the quantity in nM, number only.

Query :: Kindly indicate its recorded IC50. Item: COc1ccc(S(=O)(=O)N(CC(C)C)C[C@@H](O)CNC(=O)Oc2ccc3sccc3c2)cc1
Result :: 49

Query :: Kindly indicate its recorded IC50. Item: COc1ccc(S(=O)(=O)N(CC(C)C)C[C@@H](O)CNC(=O)Oc2ccc3occc3c2)cc1
Result :: 15400

Query :: Kindly indicate its recorded IC50. Item: COc1ccc(S(=O)(=O)N(CC(C)C)C[C@@H](O)CNC(=O)Oc2ccc3[nH]ccc3c2)cc1
Result :: 13400

Query :: Kindly indicate its recorded IC50. Item: COc1ccc(S(=O)(=O)N(CC(C)C)C[C@@H](O)[C@H](Cc2ccccc2)NC(=O)Oc2ccc3sccc3c2)cc1
Result :: 10.8

###

# Procedure Details: Intrinsic clearance in human liver microsomes assessed per mg protein
# Type: ADME, Microsome
# Conditions Used: read-out: CLH
Readout Label: microsomal CLint (µL/min/mg)
Give the quantity in µL/min/mg, number only.

Query :: Kindly indicate its recorded microsomal CLint. Item: COc1ccc(S(=O)(=O)N(CC(C)C)C[C@@H](O)[C@H](Cc2ccccc2)NC(=O)Oc2ccc3occc3c2)cc1
Result :: 121

Query :: Kindly indicate its recorded microsomal CLint. Item: COc1ccc(S(=O)(=O)N(CC(C)C)C[C@@H](O)[C@H](Cc2ccccc2)NC(=O)Oc2ccc3[nH]ccc3c2)cc1
Result :: 548

###

Would you mind telling me the reported CC50 of each entry?
# Procedure Details: Cytotoxicity in HEK293 cells assessed as reduction in cell viability by MTT assay
# Format: cell-based
# Conditions Used: human

Query :: Kindly indicate its recorded CC50. Item: COc1ccc(S(=O)(=O)N(CC(C)C)C[C@@H](O)[C@H](Cc2ccccc2)NC(=O)Oc2ccc3[nH]ccc3c2)cc1
Result :: 2.8 µM

Query :: Kindly indicate its recorded CC50. Item: COc1ccc(S(=O)(=O)N(CC(C)C)C[C@@H](O)[C@H](Cc2ccccc2)NC(=O)Oc2ccc3occc3c2)cc1
Result :: > 100 µM

Query :: Kindly indicate its recorded CC50. Item: COc1ccc(S(=O)(=O)N(CC(C)C)C[C@@H](O)CNC(=O)Oc2ccc3sccc3c2)cc1
Result :: > 100 µM

###

# Assayed System: Protease (Human immunodeficiency virus 1)
# Procedure Details: Inhibition of GFP-tagged HIV1 protease transfected in HEK293 cells at 30 uM incubated for 24 hrs by fluorescence microscopy
# Type: cell-based
The source made the active and inactive calls. No cut-off for these calls is given here.
Would you mind answering with one of these outcomes? true (1) for active, false (0) for inactive

Query :: Recorded test outcome, item COc1ccc(S(=O)(=O)N(CC(C)C)C[C@@H](O)[C@H](Cc2ccccc2)NC(=O)Oc2ccc3occc3c2)cc1
Result :: true (1)

Query :: Recorded test outcome, item COc1ccc(S(=O)(=O)N(CC(C)C)C[C@@H](O)CNC(=O)Oc2ccc3sccc3c2)cc1
Result :: false (0)

Query :: Recorded test outcome, item COc1ccc(S(=O)(=O)N(CC(C)C)C[C@@H](O)CNC(=O)Oc2ccc3[nH]ccc3c2)cc1
Result :: false (0)

Query :: Recorded test outcome, item CC(C)CN(C[C@@H](O)[C@H](Cc1ccccc1)NC(=O)O[C@H]1CO[C@H]2OCC[C@H]21)S(=O)(=O)c1ccc(N)cc1
Result :: true (1)

Query :: Recorded test outcome, item COc1ccc(S(=O)(=O)N(CC(C)C)C[C@@H](O)[C@H](Cc2ccccc2)NC(=O)Oc2ccc3[nH]ccc3c2)cc1
Result :: true (1)

Query :: Recorded test outcome, item COc1ccc(S(=O)(=O)N(CC(C)C)C[C@@H](O)[C@H](Cc2ccccc2)NC(=O)Oc2ccc3sccc3c2)cc1
Result :: false (0)

Query :: Recorded test outcome, item COc1ccc(S(=O)(=O)N(CC(C)C)C[C@@H](O)CNC(=O)Oc2ccc3occc3c2)cc1
Result :: false (0)

###

# Assayed System: Protease (Human immunodeficiency virus 1) (UniProt Q9YQ12)
# Sequence (Q9YQ12 as listed by the source): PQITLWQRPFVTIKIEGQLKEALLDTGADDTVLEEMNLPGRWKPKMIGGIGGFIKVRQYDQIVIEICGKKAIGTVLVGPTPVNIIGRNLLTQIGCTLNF
# Procedure Details: Inhibition of GFP-tagged HIV1 protease transfected in HEK293 cells at 10 to 30 uM incubated for 24 hrs by FACS analysis
# Type: cell-based
Calls of active or inactive are those of the source. The calls are words filed in the database; no cut-off is given here.
Would you mind answering with one of these outcomes? active, inactive

Query :: Recorded test outcome, item COc1ccc(S(=O)(=O)N(CC(C)C)C[C@@H](O)[C@H](Cc2ccccc2)NC(=O)Oc2ccc3occc3c2)cc1
Result :: active

Query :: Recorded test outcome, item COc1ccc(S(=O)(=O)N(CC(C)C)C[C@@H](O)CNC(=O)Oc2ccc3[nH]ccc3c2)cc1
Result :: inactive

Query :: Recorded test outcome, item COc1ccc(S(=O)(=O)N(CC(C)C)C[C@@H](O)CNC(=O)Oc2ccc3sccc3c2)cc1
Result :: inactive

Query :: Recorded test outcome, item COc1ccc(S(=O)(=O)N(CC(C)C)C[C@@H](O)CNC(=O)Oc2ccc3occc3c2)cc1
Result :: inactive

Query :: Recorded test outcome, item COc1ccc(S(=O)(=O)N(CC(C)C)C[C@@H](O)[C@H](Cc2ccccc2)NC(=O)Oc2ccc3[nH]ccc3c2)cc1
Result :: active

Query :: Recorded test outcome, item COc1ccc(S(=O)(=O)N(CC(C)C)C[C@@H](O)[C@H](Cc2ccccc2)NC(=O)Oc2ccc3sccc3c2)cc1
Result :: inactive

Query :: Recorded test outcome, item CC(C)CN(C[C@@H](O)[C@H](Cc1ccccc1)NC(=O)O[C@H]1CO[C@H]2OCC[C@H]21)S(=O)(=O)c1ccc(N)cc1
Result :: active
